Taken from ChEMBL document CHEMBL1140927.

Below is a list of entries, each paired with its recorded Cmax value.
- assay-overview: Cmax in Sprague-Dawley rat at 5 mg/kg, po
- Format: ADME, organism-based
- Parameters: dose 5 mg/kg, route oral
- measurement-conditions: in vivo
Number in nM, nothing else.

>>> recorded_measurement("C[C@H]1CN(Cc2ccc(CC(=O)N3CCC(Nc4cccc(F)c4)CC3)cc2)CCN1")
400

Query string: Need Cmax, item `C[C@H]1CN(Cc2ccc(CC(=O)N3CCC(Nc4cccc(C#N)c4)CC3)cc2)CCN1`
Result string: 200

----------
- target: Cytochrome P450 3A4 (Homo sapiens, UniProt P08684)
- Sequence (P08684 whole entry): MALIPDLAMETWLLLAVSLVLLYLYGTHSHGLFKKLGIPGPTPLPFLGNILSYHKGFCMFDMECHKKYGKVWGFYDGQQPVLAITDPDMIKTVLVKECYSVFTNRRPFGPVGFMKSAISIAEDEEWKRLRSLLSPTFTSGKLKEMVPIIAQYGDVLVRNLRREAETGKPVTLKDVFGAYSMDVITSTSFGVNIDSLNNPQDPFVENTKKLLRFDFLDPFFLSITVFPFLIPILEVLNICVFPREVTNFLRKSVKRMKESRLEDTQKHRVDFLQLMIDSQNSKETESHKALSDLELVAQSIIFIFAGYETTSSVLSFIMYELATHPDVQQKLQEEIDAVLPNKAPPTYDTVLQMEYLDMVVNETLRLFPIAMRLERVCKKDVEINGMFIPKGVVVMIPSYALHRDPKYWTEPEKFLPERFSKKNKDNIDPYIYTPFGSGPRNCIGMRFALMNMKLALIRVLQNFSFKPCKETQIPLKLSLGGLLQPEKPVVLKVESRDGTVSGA
- assay-overview: Inhibition of human CYP3A4 expressed in Escherichia coli using diethoxyfluorescein substrate measured in 25 to 30 mins by time dependent inhibition assay
- Type: ADME
value-kind: IC50
Provide a numeric answer, followed by its unit.

>>> recorded_measurement("C[C@@H]1CN(Cc2ccc(-c3cccnc3C(=O)N3CCC(Nc4ccc(F)cc4)CC3)cc2)C[C@H](C)N1")
"1.4 µM"

Query string: Need IC50, item CC[C@H]1OC(=O)[C@H](C)[C@@H](O[C@H]2C[C@@](C)(OC)[C@@H](O)[C@H](C)O2)[C@H](C)[C@@H](O[C@@H]2O[C@H](C)C[C@H](N(C)C)[C@H]2O)[C@](C)(O)C[C@@H](C)C(=O)[C@H](C)[C@@H](O)[C@]1(C)O [ERYTHROMYCIN]
Result string: 0.19 µM
